System: mice
Experiment: Traction test (mice), myorelaxant activity
Type: in vivo
Conditions: Mus musculus, po, read-out: Traction, 50% effective dose
Counter-ions that a name gives are not always drawn.
METRIC: log10 of ED50 (log10 of the value in mg/kg)
All values: base-10 log of ED50 in mg/kg.

Some entries whose results are on file:
COMPOUND | log10 of ED50
O=C(O)C1N=C(c2ccccc2)c2cc([N+](=O)[O-])ccc2NC1=O (stereo not drawn) [4336 CB, potassium salt] | -0.55
O=C(O)C1N=C(c2ccccc2)c2cc([N+](=O)[O-])ccc2NC1=O.[K+].[K+].[OH-].[OH-] (stereo not drawn) [4335 CB] | 0.10
CN1C(=O)CN=C(c2ccccc2)c2cc(Cl)ccc21 [Diazepame, reference compound] | 0.20
NC(=O)C(N=C(c1ccccc1)c1cc(Cl)ccc1N)C(=O)O (stereo not drawn) [4349 CB] | 1.00

Q: Request: log10 of ED50, test system mice, entry O=C1CN=C(c2ccccc2)c2cc(Cl)ccc2N1 [Nor-diazepame, reference compound]
A: 0.54

All values here come from patent US3966793A.
